Values compiled from the Human Domainome abundance scans (Beltran et al. 2025).

B1: Storkhead-box protein 2, residues 64 to 141; numbered along this chain, Q9P2F5 (parent)
chain: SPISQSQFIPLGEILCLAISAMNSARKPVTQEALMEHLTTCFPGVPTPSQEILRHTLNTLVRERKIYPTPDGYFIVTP

# Variants of: B1
# assayMethodText: abundance fitness (aPCA) (normalised: wild type 0, dead -1); higher = more abundant; growth selection in yeast, the domain comes from the species named
# conditionNotes: Homo sapiens
Each record here notes measured abundance fitness.

Completed entries (count: 3):
{"polymerSequence": "SPISQSQFIPLGEILCLAISAMNSARKPVTVEALMEHLTTCFPGVPTPSQEILRHTLNTLVRERKIYPTPDGYFIVTP [Q31V]", "measValue": -0.027}
{"polymerSequence": "SPISQSQFIPLGEILCLAISAMNSARKPVTQEALMEHLTTCFPGVPTFSQEILRHTLNTLVRERKIYPTPDGYFIVTP [P48F]", "measValue": -0.141}
{"polymerSequence": "SPISQSQFIPLGEILCLAISAMNSARKPVTQEALMEHLTTCFPGVPTPSQEILGHTLNTLVRERKIYPTPDGYFIVTP [R54G]", "measValue": 0.057}

QUERY: Given the entry SPISQSQFIPLGEILCLAISAMNSARKPVTQSALMEHLTTCFPGVPTPSQEILRHTLNTLVRERKIYPTPDGYFIVTP [E32S] , report its measured abundance fitness.
RESULT: -0.03

QUERY: Given the entry SPISQSQFIPLGEILCLAISAMNSARKPVTQEALMEHLTTCFPGVPTPSQEILRHTLETLVRERKIYPTPDGYFIVTP [N58E] , report its measured abundance fitness.
RESULT: 0.001

QUERY: Given the entry SPISQSQFIPLGEILCLAISAMNSARKPVTQEALMEHLTTCFPGVETPSQEILRHTLNTLVRERKIYPTPDGYFIVTP [P46E] , report its measured abundance fitness.
RESULT: -0.067
